Target: Avi-KRAS G12D (1-169) GppNHp/RAF1 RBD-3×FLAG (52-151) (Homo sapiens, UniProt P01116, G12D)
Construct: Avi-KRAS G12D (1-169) GppNHp
Sequence (P01116 1-169 isoform P01116-2 G12D limits assumed): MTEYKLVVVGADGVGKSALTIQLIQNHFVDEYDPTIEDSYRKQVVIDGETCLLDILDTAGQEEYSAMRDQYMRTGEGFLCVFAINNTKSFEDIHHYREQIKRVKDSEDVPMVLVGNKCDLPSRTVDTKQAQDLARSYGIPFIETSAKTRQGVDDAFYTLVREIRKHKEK
Assay: HTRF Raf1-KRAS G12D-GppNHp disruption assay
Type: biochemical
Conditions: 1 h incubation
Reported IC50 values follow for various molecules

Nc1nc2c(-c3c(C(F)(F)F)cc4c(N5CCNCC5)nc(OCC56CCCN5CCC6)nc4c3F)ccc(F)c2s1 :: 1000 to 10000 nM
CN(c1nc(OC[C@@]23CCCN2C[C@H](F)C3)nc2c(F)c(-c3ccc(F)c4sc(N)nc34)c(C(F)(F)F)cc12)C1C2C[C@H]1CN2 (stereo partly drawn) [Compound 288] :: 100 to 1000 nM
N#Cc1csc2c(F)ccc(-c3cc4nc(OC[C@@]56CCCN5C[C@H](F)C6)nc(N5CC6CCC(C5)N6)c4cc3C(F)(F)F)c12 :: 1000 to 10000 nM
CO[C@H]1CN2CCC[C@]2(COc2nc(N3CC4CCC(C3)N4)c3cc(C(F)(F)F)c(-c4ccc(F)c5sc(N)nc45)c(F)c3n2)C1 :: 100 to 1000 nM
NCC(=O)N1CC[C@@H]2[C@H]1CN2c1nc(OCC23CCCN2CCC3)nc2c(F)c(-c3ccc(F)c4sc(N)nc34)c(-c3ccoc3)cc12 :: 1000 to 10000 nM

The molecule Nc1c(F)c(F)c(F)c(-c2c(C(F)(F)F)cc3c(N4CC5CCC(C4)N5)nc(OCC45CCCN4CCC5)nc3c2F)c1Cl showed IC50 equal to 10000 to 30000 nM

* * *

Readings of pIC50 for the listed compounds
Biological target: Avi-KRAS G12D (1-169) GppNHp/RAF1 RBD-3×FLAG (52-151) (Homo sapiens, UniProt P01116, G12D)
Construct: Avi-KRAS G12D (1-169) GppNHp
Assay: HTRF Raf1-KRAS G12D-GppNHp disruption assay
Details: 1 h incubation
pIC50: −log10 of the molar value.

# annotated cases, reported pIC50 shown
Nc1nc2c(-c3c(C(F)(F)F)cc4c(N[C@H]5C[C@H]6CNC[C@H]6C5)nc(OCC56CCCN5CCC6)nc4c3F)ccc(F)c2s1 :: 5.00 to 6.00
CCN(c1nc(OC[C@@H]2CCCN2C)nc2c(F)c(-c3ccc(F)c4sc(N)nc34)c(C(F)(F)F)cc12)C1CNC1 :: 4.52 to 5.00
N#Cc1cc2c(N3CCNCC3)ncnc2c(F)c1-c1ccc(F)c2sc(N)nc12 :: 4.52 to 5.00

Recorded pIC50 (compound Nc1nc2c(-c3c(C(F)(F)F)cc4c(N5C[C@H]6CC[C@@H](C5)N6)nc(OC[C@@]56CCCN5C[C@H](F)C6)nc4c3Cl)ccc(F)c2s1 ): 6.00 to 7.00

Notebook: CN1CC(F)(F)C[C@H]1COc1nc(N2CCNCC2)c2cc(C(F)(F)F)c(-c3ccc(F)c4sc(N)nc34)c(F)c2n1 , pIC50 read as 4.52 to 5.00

Summary for this compound, CN(c1nc(N2CC(N3CC4(CC4)C3)C2)nc2c(F)c(-c3ccc(F)c4sc(N)c(C#N)c34)c(C(F)(F)F)cc12)[C@@H]1CCNC1 : pIC50 is 6.00 to 7.00

Data provenance: patent US20240246954A1
